experiment: Inhibition of HIV-1 Mutant HIV-1 RT enzymes containing the single amino acid substitution V179D
Metric: Ki (nM)
Kindly provide the numeric value in nM only, without the unit symbol.

Cc1cc2nc(OCCNC(=S)Nc3ccc(Br)cn3)c3cccn3c2cc1C    800

Moving on to the next compound.
Prompt line: Ki lookup needed for "S=C(NCCOc1nc2cc(Cl)ccc2n2cccc12)Nc1ccc(Br)cn1" , thanks.
Response line: 70
